biological target: Aggrecan core protein (Bos taurus)
Sequence (P13608 whole entry): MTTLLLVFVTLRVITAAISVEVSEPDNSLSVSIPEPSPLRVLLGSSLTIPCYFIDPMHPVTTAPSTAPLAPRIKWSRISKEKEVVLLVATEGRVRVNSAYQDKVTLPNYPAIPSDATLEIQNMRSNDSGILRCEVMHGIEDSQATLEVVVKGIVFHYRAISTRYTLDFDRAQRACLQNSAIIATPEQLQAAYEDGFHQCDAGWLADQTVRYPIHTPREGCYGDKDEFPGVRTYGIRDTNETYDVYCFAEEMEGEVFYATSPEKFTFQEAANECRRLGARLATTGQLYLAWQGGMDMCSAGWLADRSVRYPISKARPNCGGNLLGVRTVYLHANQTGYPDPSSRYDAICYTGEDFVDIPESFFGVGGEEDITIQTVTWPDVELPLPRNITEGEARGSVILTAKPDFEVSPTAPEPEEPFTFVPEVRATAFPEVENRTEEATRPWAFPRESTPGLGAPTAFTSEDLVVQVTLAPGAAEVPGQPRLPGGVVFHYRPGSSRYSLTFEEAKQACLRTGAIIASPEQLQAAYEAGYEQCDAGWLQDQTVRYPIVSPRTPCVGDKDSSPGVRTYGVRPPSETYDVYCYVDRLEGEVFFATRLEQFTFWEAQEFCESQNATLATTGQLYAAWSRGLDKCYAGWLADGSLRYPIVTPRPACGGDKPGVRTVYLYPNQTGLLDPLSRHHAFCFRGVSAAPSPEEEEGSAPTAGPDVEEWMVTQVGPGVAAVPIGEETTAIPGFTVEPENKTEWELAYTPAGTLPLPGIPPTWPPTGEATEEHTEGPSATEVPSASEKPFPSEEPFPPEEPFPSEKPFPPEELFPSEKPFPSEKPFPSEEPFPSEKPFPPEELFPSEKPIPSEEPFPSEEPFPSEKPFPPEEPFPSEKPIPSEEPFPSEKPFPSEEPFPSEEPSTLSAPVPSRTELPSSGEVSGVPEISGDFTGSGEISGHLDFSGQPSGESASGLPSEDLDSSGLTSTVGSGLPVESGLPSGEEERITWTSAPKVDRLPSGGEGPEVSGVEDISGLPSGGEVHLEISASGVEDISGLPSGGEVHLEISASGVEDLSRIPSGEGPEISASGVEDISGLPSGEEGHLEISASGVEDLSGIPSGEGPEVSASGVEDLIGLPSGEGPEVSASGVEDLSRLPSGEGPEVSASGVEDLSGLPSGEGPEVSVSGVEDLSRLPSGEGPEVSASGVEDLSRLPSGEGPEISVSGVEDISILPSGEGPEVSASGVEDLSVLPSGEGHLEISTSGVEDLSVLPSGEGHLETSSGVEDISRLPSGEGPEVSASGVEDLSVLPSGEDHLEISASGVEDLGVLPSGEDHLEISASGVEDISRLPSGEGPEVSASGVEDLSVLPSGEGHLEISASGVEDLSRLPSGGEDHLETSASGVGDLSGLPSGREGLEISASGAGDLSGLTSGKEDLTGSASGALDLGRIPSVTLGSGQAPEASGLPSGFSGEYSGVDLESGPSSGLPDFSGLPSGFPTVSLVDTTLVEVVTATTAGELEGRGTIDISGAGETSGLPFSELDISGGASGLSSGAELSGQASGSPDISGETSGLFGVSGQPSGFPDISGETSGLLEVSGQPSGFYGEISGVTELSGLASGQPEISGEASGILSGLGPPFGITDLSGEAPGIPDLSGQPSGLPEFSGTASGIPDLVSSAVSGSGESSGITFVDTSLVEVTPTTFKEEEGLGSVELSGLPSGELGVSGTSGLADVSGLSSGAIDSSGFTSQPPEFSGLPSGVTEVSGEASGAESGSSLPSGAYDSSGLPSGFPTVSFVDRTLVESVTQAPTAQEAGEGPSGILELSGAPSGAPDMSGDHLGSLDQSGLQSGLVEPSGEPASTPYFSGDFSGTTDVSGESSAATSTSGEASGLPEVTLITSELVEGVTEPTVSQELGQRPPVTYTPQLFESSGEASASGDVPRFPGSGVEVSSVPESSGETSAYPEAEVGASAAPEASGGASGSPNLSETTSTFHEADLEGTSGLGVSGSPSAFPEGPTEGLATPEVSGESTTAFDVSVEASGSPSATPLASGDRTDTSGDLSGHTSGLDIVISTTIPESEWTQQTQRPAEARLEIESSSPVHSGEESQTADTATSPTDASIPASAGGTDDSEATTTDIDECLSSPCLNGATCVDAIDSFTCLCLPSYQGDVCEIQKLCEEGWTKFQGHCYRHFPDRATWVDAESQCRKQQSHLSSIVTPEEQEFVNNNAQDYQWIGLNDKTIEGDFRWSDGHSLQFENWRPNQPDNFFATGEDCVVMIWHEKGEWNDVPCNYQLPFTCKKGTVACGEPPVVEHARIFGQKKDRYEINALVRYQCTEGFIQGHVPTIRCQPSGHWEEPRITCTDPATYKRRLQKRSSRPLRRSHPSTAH
readout_kind: Kd (mM)
Field format: number, assumed mM, no unit text.

Some solved cases for reference:
INSERT INTO results (compound, endpoint_value) VALUES
  ('Cn1c(COP(=O)(NCCC[N+](C)(C)C)N(CCCl)CCCl)cnc1[N+](=O)[O-].[I-] (configuration not stated)', 1.29),
  ('CC[N+](C)(CCCCNP(=O)(OCc1cnc([N+](=O)[O-])n1C)N(CCCl)CCCl)Cc1ccccc1.[I-] (configuration not stated)', 2.1),
  ('CC[N+](CC)(CC)CCCNP(=O)(OCc1cnc([N+](=O)[O-])n1C)N(CCCl)CCCl.[I-] (configuration not stated)', 3.49);

Supply Kd measured with Aggrecan core protein (Bos taurus) for CC[N+](C)(CC)CCCCNP(=O)(OCc1cnc([N+](=O)[O-])n1C)N(CCCl)CCCl.[I-] (configuration not stated) .
4.97

Under Aggrecan core protein (Bos taurus), report Kd for Cn1c(COP(=O)(NCC[N+](C)(C)Cc2ccccc2)N(CCCl)CCCl)cnc1[N+](=O)[O-].[I-] (configuration not stated)
2.9

Provide Kd, recorded with Aggrecan core protein (Bos taurus), of Cn1c(COP(=O)(NCCCCC[N+](C)(C)C)N(CCCl)CCCl)cnc1[N+](=O)[O-].[I-] (configuration not stated)
4.22

Fill in: Kd on Aggrecan core protein (Bos taurus), entry Cn1c(COP(=O)(NCCCCC[N+](C)(C)Cc2ccccc2)N(CCCl)CCCl)cnc1[N+](=O)[O-].[I-] (configuration not stated)
2.55

Tell me its Kd on Aggrecan core protein (Bos taurus): CC[N+](C)(C)CCCCCNP(=O)(OCc1cnc([N+](=O)[O-])n1C)N(CCCl)CCCl.[I-] (configuration not stated)
3.56

Lab note: Aggrecan core protein (Bos taurus) assay, enter Kd for CC[N+](C)(C)CCCCNP(=O)(OCc1cnc([N+](=O)[O-])n1C)N(CCCl)CCCl.[I-] (configuration not stated) here
2.02

Give the observed Kd of Cn1c(COP(=O)(NCCCC[N+](C)(C)Cc2ccccc2)N(CCCl)CCCl)cnc1[N+](=O)[O-].[I-] (configuration not stated) for Aggrecan core protein (Bos taurus).
5.27

Send back Aggrecan core protein (Bos taurus) Kd of CC[N+](C)(CCCCCNP(=O)(OCc1cnc([N+](=O)[O-])n1C)N(CCCl)CCCl)Cc1ccccc1.[I-] (configuration not stated) only.
3.47

Jot down Kd (Aggrecan core protein (Bos taurus)) of Cn1c(COP(=O)(NCCC[N+](C)(C)Cc2ccccc2)N(CCCl)CCCl)cnc1[N+](=O)[O-].[I-] (configuration not stated) .
2.99
